# Tgt: Alkaline phosphatase, tissue-nonspecific isozyme (Homo sapiens) (UniProt P05186)
# Sequence (P05186 whole entry, looked up): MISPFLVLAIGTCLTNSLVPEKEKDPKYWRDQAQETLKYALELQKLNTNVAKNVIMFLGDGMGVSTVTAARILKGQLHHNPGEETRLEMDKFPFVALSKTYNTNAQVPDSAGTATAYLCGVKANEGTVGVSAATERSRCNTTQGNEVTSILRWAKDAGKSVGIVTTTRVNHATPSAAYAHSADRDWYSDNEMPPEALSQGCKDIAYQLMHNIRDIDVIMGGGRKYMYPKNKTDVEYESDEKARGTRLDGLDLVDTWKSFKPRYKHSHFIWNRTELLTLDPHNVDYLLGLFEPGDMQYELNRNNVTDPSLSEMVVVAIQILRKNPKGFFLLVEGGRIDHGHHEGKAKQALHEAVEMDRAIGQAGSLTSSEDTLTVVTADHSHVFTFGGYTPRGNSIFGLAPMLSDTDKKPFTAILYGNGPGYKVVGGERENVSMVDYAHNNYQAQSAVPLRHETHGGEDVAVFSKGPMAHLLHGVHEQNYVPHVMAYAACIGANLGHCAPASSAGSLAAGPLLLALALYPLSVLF
# Experiment summary: effect of analogs on TNAP activity, SAR follow-up, selectivity assay for human IAP activator project, biochemical, human TNAP (AID 493112)
# Test settings: purified TNAP, CDP-Star luminescence, 30 min
Calls of active or inactive are those of the source.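 The calls were made as follows: active = mean half-maximal activation concentration below 100 µM; inactive = the rest.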
// classify into Yes = active, No = inactive

Q. Field: outcome | Entry: "O=C(NC(=S)NNC(=O)c1ccccc1O)c1ccc(F)cc1"
A. Yes

Q. Just curious, what result did "O=C(N/N=C/c1cc(Br)ccc1O)c1cc(C2CC2)[nH]n1" get here?
A. Yes

Q. Would you mind telling me which call this test gave "COc1ccc(OC)c(/C=N/NC(=O)C(=O)N/N=C/c2cc(OC)ccc2OC)c1" ?
A. Yes

Q. Outcome? "Cc1cc(C(=O)NN=Cc2cc(Cl)cc([N+](=O)[O-])c2O)n[nH]1"
A. No

Q. Which outcome did this test record for the compound "COc1ccc(-c2csc(Nc3cccc4ccccc34)n2)cc1F" ?
A. No

Q. Could you kindly confirm the outcome this assay logged for "O=C(NN=Cc1c(O)ccc2ccccc12)c1[nH]ncc1Br" ?
A. No

Q. Kindly provide the recorded test outcome for the following compound: "COc1cc(OC)cc(C(=O)NNC(=O)c2nn(C)c(=O)c3ccccc23)c1"
A. Yes

Q. Each compound tested received a call. Report the one for "Cc1cc(C(=O)N/N=C/c2cc(Br)ccc2O)n[nH]1" .
A. Yes

Q. What classification did CC1C(=O)NN=C1C(=O)NN=Cc1ccc(O)cc1O (stereo unspecified) end up with in this test?
A. No

Q. // param item: "O=C(N/N=C/c1ccccc1O)c1cc(C2CC2)[nH]n1" ; yields the recorded call
A. Yes

Q. Which outcome was entered for the compound "CCN(CC)c1ccc(/C=N/NC(=O)C(=O)N/N=C/c2ccc(N(CC)CC)cc2O)c(O)c1" in this test?
A. No

----------
# Tgt: UniProtKB P05186
# Experiment summary: effect of analogs on TNAP activity, SAR follow-up, selectivity assay for human IAP activator project, biochemical, human TNAP (AID 493112)
# Test settings: purified TNAP, CDP-Star luminescence, 30 min
Calls of active or inactive are those of the source.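 How the source made its calls: active means mean half-maximal activation concentration below 100 µM; inactive means the rest.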
Parameter call: string, one of YES (active), NO (inactive)

Q. Record lookup: outcome of this test for "CCOc1cccc(C=NNC(=O)c2cc(C3CC3)[nH]n2)c1O" ?
A. YES

Q. For this molecule, state the assay outcome: "CCCCOc1ccc(/C=N/NC(=O)C(=O)N/N=C/c2ccc(OCCCC)cc2)cc1"
A. NO

Q. In this assay, the call recorded for "O=C(N/N=C/c1ccccc1O)c1n[nH]c2c1CCC2" was what?
A. YES

Q. Kindly provide the recorded test outcome for the following molecule: "COc1cccc(C=NNC(=O)C(=O)NN=Cc2cccc(OC)c2O)c1O"
A. NO

Q. Test call, this molecule: "O=C(N/N=C/c1ccccc1C(=O)O)C(=O)N/N=C/c1ccccc1C(=O)O"
A. YES

Q. // return assay outcome for COc1cccc(C=NNC(=O)C2=NNC(=O)C2C)c1O (stereo not given)
A. YES

Q. Which result was noted for this molecule in the test: "CC(=O)Nc1ccc(/C=N/NC(=O)C(=O)N/N=C/c2ccc(NC(C)=O)cc2)cc1"
A. NO

Q. Which outcome did this test record for the molecule "N#CCOc1ccccc1/C=N/NC(=O)C(=O)N/N=C/c1ccccc1OCC#N" ?
A. NO

Q. What outcome does the record of this test show for "COc1ccc(-c2cc(C(=O)NN=Cc3c(O)ccc4ccccc34)[nH]n2)cc1" ?
A. NO

Q. Can you look up the reported call for "CC(=NNC(=O)C(=O)NN=C(C)c1cccc(O)c1)c1cccc(O)c1" for me?
A. NO

----------
# Tgt: UniProt P05186
# Experiment summary: effect of analogs on TNAP activity, SAR follow-up, selectivity assay for human IAP activator project, biochemical, human TNAP (AID 493112)
# Test settings: purified TNAP, CDP-Star luminescence, 30 min
Active and inactive are the calls of the source.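 The calls were made as follows: active = mean half-maximal activation concentration below 100 µM; inactive = the rest.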
Valid outcomes are listed here; reply with one: active, inactive

Q. Hi team, can someone confirm the assay call for "C/C(=N\NC(=O)c1cc(C)[nH]n1)c1ccc2ccccc2c1O" ?
A. inactive

Q. Please share the test call associated with "COc1cc(/C=N/NC(=O)C(=O)N/N=C/c2ccc(O)c(OC)c2)ccc1O" .
A. inactive

Q. Name the outcome recorded for OC(c1nc2ccc(F)cc2[nH]1)C(O)c1nc2ccc(F)cc2[nH]1 (stereo not drawn) in the assay.
A. active

----------
# Tgt: Alkaline phosphatase, tissue-nonspecific isozyme (Homo sapiens) (UniProt P05186)
# Experiment summary: effect of analogs on TNAP activity, SAR follow-up, selectivity assay for human IAP activator project, biochemical, human TNAP (AID 493112)
# Test settings: purified TNAP, CDP-Star luminescence, 30 min
Active and inactive are the calls of the source.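 The calls were made as follows: active = mean half-maximal activation concentration below 100 µM; inactive = the rest.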
Respond with a class label; see y for active, n for inactive

Q. Dear all, I need the recorded test outcome for "COc1cccc(C=NNC(=O)c2[nH]nc3c2CCc2ccccc2-3)c1O" , thank you.
A. y

Q. Each molecule tested received a call. Report the one for "Cc1ccc(-c2cc(C(=O)NN=Cc3ccccc3O)n[nH]2)o1" .
A. y

Q. Check the results log: what was the call for "Cn1cccc1-c1cc(C(=O)NN=Cc2cc(Br)ccc2O)[nH]n1" ?
A. y

Q. So what was the verdict on "COc1cccc(C=NNC(=O)C(=O)NN=Cc2cccc(OC)c2OC)c1OC" in this test?
A. y

Q. Check the results log: what was the call for "COc1cccc(C=NNC(=O)c2cc(-c3cccn3C)n[nH]2)c1O" ?
A. y

Q. Any idea what this test logged for "O=C(N/N=C/c1ccc(O)cc1)C(=O)N/N=C/c1ccc(O)cc1" ?
A. n

Q. Dear all, I need the recorded test outcome for "COc1cc(/C=N\NC(=O)C(=O)N/N=C/c2cc(OC)c(O)c(OC)c2)cc(OC)c1O" , thank you.
A. n

Q. Query: recorded result category for "CC(=O)Nc1cccc(C(=O)NNC(=O)c2n[nH]c(=O)c3ccccc23)c1" in this test
A. y

Q. // return assay outcome for "COc1cc(/C=N/NC(=O)C(=O)N/N=C/c2cc(OC)c(OC)c(OC)c2)cc(OC)c1OC"
A. n

Q. What did this assay record as the result for "O=C(NNC(=S)NC(=O)c1ccccc1[N+](=O)[O-])c1ccccc1O" ?
A. y

Q. What classification did "COc1cc(OC)c(OC)cc1/C=N/NC(=O)C(=O)N/N=C/c1cc(OC)c(OC)cc1OC" end up with in this test?
A. n

Q. Called result for "CCOc1cccc(C=NNC(=O)c2cc(-c3cccn3C)n[nH]2)c1O"
A. y

Q. Lab log entry: "O=C(N/N=C/c1c(O)ccc2ccccc12)c1cc(-c2cccs2)[nH]n1" — outcome as called in the assay?
A. n

Q. Could you kindly confirm the outcome this assay logged for "O=C(N/N=C/c1ccc2c(c1)OCO2)C(=O)N/N=C/c1ccc2c(c1)OCO2" ?
A. n

Q. Tell me the recorded outcome of this test for "CCOc1cc(/C=N/NC(=O)C(=O)N/N=C/c2ccc(O)c(OCC)c2)ccc1O" .
A. n

Q. Can you look up the reported call for "O=C(N/N=C/c1c(O)ccc2ccccc12)C(=O)N/N=C/c1c(O)ccc2ccccc12" for me?
A. n

Q. Please share the test call associated with "Cc1cc(C(=O)N/N=C\c2cc(C(C)(C)C)ccc2O)n[nH]1" .
A. y

Q. Entry "O=C(N/N=C\c1cccc(O)c1)C(=O)N/N=C/c1cccc(O)c1" : call = ?
A. n

Q. Which outcome did this test record for the molecule "O=C(N/N=C/c1cc(Br)ccc1O)C(=O)N/N=C/c1cc(Br)ccc1O" ?
A. n

Q. Would you mind telling me which call this test gave "O=C(NN=Cc1ccccc1)C(=O)NN=Cc1ccccc1" ?
A. y

Q. Per the records of this test, what outcome belongs to "CN(C)c1ccc(/C=N/NC(=O)C(=O)N/N=C/c2ccc(N(C)C)cc2)cc1" ?
A. n

----------
# Tgt: Alkaline phosphatase, tissue-nonspecific isozyme (Homo sapiens) (UniProt P05186)
# Experiment summary: effect of analogs on TNAP activity, SAR follow-up, selectivity assay for human IAP activator project, biochemical, human TNAP (AID 493112)
# Test settings: purified TNAP, CDP-Star luminescence, 30 min
Calls of active or inactive are those of the source.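 The calls were made as follows: active = mean half-maximal activation concentration below 100 µM; inactive = the rest.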
// allowed return values: active, inactive

Q. Answer briefly: the call reported for "Cc1cc(C(=O)NN=Cc2cccc([N+](=O)[O-])c2O)n[nH]1" in this assay.
A. inactive

Q. Entry "COc1ccc(/C=N/NC(=O)C(=O)N/N=C/c2ccc(OC)c(OC)c2)cc1OC" : call = ?
A. inactive

Q. Per the records of this test, what outcome belongs to "CC(C)C(=O)NC(=S)Nc1ccccc1C(=O)Nc1ccccc1" ?
A. active
